- Method: Example 1: pharmacokinetics after in-clinic subcutaneous dose
- Format: in vivo, human
- Setup conditions: human, in vivo, sc, 1.75 mg, 1.75 mg SC, Visit 7; read-out: AUC(0-4h), Mean
Measure: AUC(0-t) (µg·h/mL)
Numbers only; they are read as µg·h/mL.

Would you mind telling me what AUC(0-t) value was observed for CCCC[C@H](NC(C)=O)C(=O)N[C@H]1CC(=O)NCCCC[C@@H](C(=O)O)NC(=O)[C@H](Cc2c[nH]c3ccccc23)NC(=O)[C@H](CCCNC(=N)N)NC(=O)[C@@H](Cc2ccccc2)NC(=O)[C@H](Cc2c[nH]cn2)NC1=O [bremelanotide] ? 0.184

====

- Method: Example 1: pharmacokinetics after in-clinic subcutaneous dose
- Assay type: in vivo, human
- Setup conditions: human, in vivo, sc, 0.75 mg, 0.75 mg SC, Visit 7; read-out: Cmax, Mean
Measure: Cmax (ng/mL)
Numbers only; they are read as ng/mL.

Would you mind telling me what Cmax value was observed for CCCC[C@H](NC(C)=O)C(=O)N[C@H]1CC(=O)NCCCC[C@@H](C(=O)O)NC(=O)[C@H](Cc2c[nH]c3ccccc23)NC(=O)[C@H](CCCNC(=N)N)NC(=O)[C@@H](Cc2ccccc2)NC(=O)[C@H](Cc2c[nH]cn2)NC1=O [bremelanotide] ? 38

====

- Method: Example 1: pharmacokinetics after in-clinic subcutaneous dose
- Assay type: in vivo, human
- Setup conditions: human, blood, sc, 1.25 mg, 1.25 mg SC, Visit 7; read-out: Cmax, Mean
Measure: Cmax (ng/mL)
Numbers only; they are read as ng/mL.

Would you mind telling me what Cmax value was observed for CCCC[C@H](NC(C)=O)C(=O)N[C@H]1CC(=O)NCCCC[C@@H](C(=O)O)NC(=O)[C@H](Cc2c[nH]c3ccccc23)NC(=O)[C@H](CCCNC(=N)N)NC(=O)[C@@H](Cc2ccccc2)NC(=O)[C@H](Cc2c[nH]cn2)NC1=O [bremelanotide] ? 60

====

- Method: Example 1: pharmacokinetics after in-clinic subcutaneous dose
- Format: in vivo, human
- Setup conditions: human, in vivo, sc, 1.75 mg, 1.75 mg SC, Visit 5; read-out: AUC(0-4h), Mean
Measure: AUC(0-t) (ng·h/mL)
Numbers only; they are read as ng·h/mL.

Would you mind telling me what AUC(0-t) value was observed for CCCC[C@H](NC(C)=O)C(=O)N[C@H]1CC(=O)NCCCC[C@@H](C(=O)O)NC(=O)[C@H](Cc2c[nH]c3ccccc23)NC(=O)[C@H](CCCNC(=N)N)NC(=O)[C@@H](Cc2ccccc2)NC(=O)[C@H](Cc2c[nH]cn2)NC1=O [bremelanotide] ? 178

====

- Method: Example 1: pharmacokinetics after in-clinic subcutaneous dose
- Format: in vivo, human
- Setup conditions: human, blood, sc, 1.25 mg, 1.25 mg SC, Visit 5; read-out: AUC(0-2h), Mean
Measure: AUC(0-t) (ng·h/mL)
Numbers only; they are read as ng·h/mL.

Would you mind telling me what AUC(0-t) value was observed for CCCC[C@H](NC(C)=O)C(=O)N[C@H]1CC(=O)NCCCC[C@@H](C(=O)O)NC(=O)[C@H](Cc2c[nH]c3ccccc23)NC(=O)[C@H](CCCNC(=N)N)NC(=O)[C@@H](Cc2ccccc2)NC(=O)[C@H](Cc2c[nH]cn2)NC1=O [bremelanotide] ? 86

====

- Method: Example 1: pharmacokinetics after in-clinic subcutaneous dose
- Format: in vivo, human
- Setup conditions: human, blood, sc, 1.25 mg, 1.25 mg SC, Visit 5; read-out: AUC(0-2h), Median
Measure: AUC(0-t)
Please answer using the number first and the unit second.

Would you mind telling me what AUC(0-t) value was observed for CCCC[C@H](NC(C)=O)C(=O)N[C@H]1CC(=O)NCCCC[C@@H](C(=O)O)NC(=O)[C@H](Cc2c[nH]c3ccccc23)NC(=O)[C@H](CCCNC(=N)N)NC(=O)[C@@H](Cc2ccccc2)NC(=O)[C@H](Cc2c[nH]cn2)NC1=O [bremelanotide] ? 81 ng·h/mL

====

- Method: Example 1: pharmacokinetics after in-clinic subcutaneous dose
- Format: in vivo, human
- Setup conditions: human, in vivo, sc, 1.75 mg, 1.75 mg SC, Visit 5; read-out: Cmax, Median
Measure: Cmax (ng/mL)
Numbers only; they are read as ng/mL.

Would you mind telling me what Cmax value was observed for CCCC[C@H](NC(C)=O)C(=O)N[C@H]1CC(=O)NCCCC[C@@H](C(=O)O)NC(=O)[C@H](Cc2c[nH]c3ccccc23)NC(=O)[C@H](CCCNC(=N)N)NC(=O)[C@@H](Cc2ccccc2)NC(=O)[C@H](Cc2c[nH]cn2)NC1=O [bremelanotide] ? 78

====

- Method: Example 1: pharmacokinetics after in-clinic subcutaneous dose
- Assay type: in vivo, human
- Setup conditions: human, blood, sc, 0.75 mg, 0.75 mg SC, Visit 7; read-out: AUC(0-2h), Median
Measure: AUC(0-t) (ng·h/mL)
Numbers only; they are read as ng·h/mL.

Would you mind telling me what AUC(0-t) value was observed for CCCC[C@H](NC(C)=O)C(=O)N[C@H]1CC(=O)NCCCC[C@@H](C(=O)O)NC(=O)[C@H](Cc2c[nH]c3ccccc23)NC(=O)[C@H](CCCNC(=N)N)NC(=O)[C@@H](Cc2ccccc2)NC(=O)[C@H](Cc2c[nH]cn2)NC1=O [bremelanotide] ? 52

====

- Method: Example 1: pharmacokinetics after in-clinic subcutaneous dose
- Assay type: in vivo, human
- Setup conditions: human, blood, sc, 1.25 mg, 1.25 mg SC, Visit 5; read-out: AUC(0-4h), Mean
- Protocol: Ambulatory blood pressure monitoring was conducted following both placebo and randomized treatment group in-clinic administrations. […] Mean pharmacokinetic parameters were determined by bremelanotide dose and visit, including Cmax determinations (the highest ng/mL concentration at either 0.5 or 1 hour post administration) and AUC determinations at two hours and, for a subset of subjects in each group, at four hours. […]
Measure: AUC(0-t) (ng·h/mL)
Numbers only; they are read as ng·h/mL.

Would you mind telling me what AUC(0-t) value was observed for CCCC[C@H](NC(C)=O)C(=O)N[C@H]1CC(=O)NCCCC[C@@H](C(=O)O)NC(=O)[C@H](Cc2c[nH]c3ccccc23)NC(=O)[C@H](CCCNC(=N)N)NC(=O)[C@@H](Cc2ccccc2)NC(=O)[C@H](Cc2c[nH]cn2)NC1=O [bremelanotide] ? 138

====

- Method: Example 1: pharmacokinetics after in-clinic subcutaneous dose
- Assay type: in vivo, human
- Setup conditions: human, in vivo, sc, 1.75 mg, 1.75 mg subcutaneous dose, Example 1; read-out: Cmax, mean
Measure: Cmax
Please answer using the number first and the unit second.

Would you mind telling me what Cmax value was observed for CCCC[C@H](NC(C)=O)C(=O)N[C@H]1CC(=O)NCCCC[C@@H](C(=O)O)NC(=O)[C@H](Cc2c[nH]c3ccccc23)NC(=O)[C@H](CCCNC(=N)N)NC(=O)[C@@H](Cc2ccccc2)NC(=O)[C@H](Cc2c[nH]cn2)NC1=O [bremelanotide] ? 77.2 ng/mL

====

- Method: Pharmacokinetics of subcutaneous administration in healthy adult males
- Format: in vivo
- Setup conditions: male, human, plasma, sc, read-out: Median Tmax
Measure: Tmax

Would you mind telling me what Tmax value was observed for CCCC[C@H](NC(C)=O)C(=O)N[C@H]1CC(=O)NCCCC[C@@H](C(=O)O)NC(=O)[C@H](Cc2c[nH]c3ccccc23)NC(=O)[C@H](CCCNC(=N)N)NC(=O)[C@@H](Cc2ccccc2)NC(=O)[C@H](Cc2c[nH]cn2)NC1=O [bremelanotide] ? 30 to 60 min

====

- Method: Example 1: pharmacokinetics after in-clinic subcutaneous dose
- Format: in vivo, human
- Setup conditions: human, blood, sc, 0.75 mg, 0.75 mg SC, Visit 5; read-out: Cmax, Median
Measure: Cmax (ng/mL)
Numbers only; they are read as ng/mL.

Would you mind telling me what Cmax value was observed for CCCC[C@H](NC(C)=O)C(=O)N[C@H]1CC(=O)NCCCC[C@@H](C(=O)O)NC(=O)[C@H](Cc2c[nH]c3ccccc23)NC(=O)[C@H](CCCNC(=N)N)NC(=O)[C@@H](Cc2ccccc2)NC(=O)[C@H](Cc2c[nH]cn2)NC1=O [bremelanotide] ? 36
